# target-of-assay: Endothelial PAS domain-containing protein 1 (Homo sapiens) (UniProt Q99814)
# assay-explanation: HIF-2a and HIF-1a reporter inhibition panel, dose response, selectivity assay for HIF-2a inhibitor project, cell-based, luminescence (AID 651581)
# study-conditions: HIF-2a, run 1
pIC50: −log10 of the molar value.
Mark TRUE for reported pIC50 of 5 or greater; mark FALSE for anything smaller.

### Prompt Identify whether the reported pIC50 of the following molecule is 5 or greater: `O=C(O)c1cccc(-c2nc3ccccc3[nH]2)c1`
### Response FALSE

### Prompt Could you verify whether the entry `O=C(NNc1nc2ccccc2o1)c1ccccc1` shows pIC50 of no less than 5?
### Response TRUE

### Prompt Reported pIC50 at or above 5? `NNC(=O)COc1ccc(-c2nccc(-c3ccc(F)cc3)n2)cc1`
### Response TRUE

### Prompt Does the reported pIC50 for `Cc1ccc(C(C)C)c(OCc2ccc(C(=O)N/N=C/c3ccc(C(=O)O)cc3)cc2)c1` fall at or above the 5 mark?
### Response TRUE

### Prompt # check: pIC50 of O=C(O)c1cccc(C(=O)Nc2cccc(NC(=O)C3CCCO3)c2)c1 (stereo not given) is greater than or equal to 5
### Response FALSE

### Prompt Determine whether this molecule has pIC50 no lower than 5: `Cc1c(CCC(=O)NCCC(=O)O)c(=O)oc2c(C)c3oc4c(c3cc12)CCCC4`
### Response TRUE

### Prompt // inclusive: pIC50 at least 5? input: `CC(=O)N/N=C\c1cccc(OC/C=C/c2ccccc2)c1`
### Response TRUE

### Prompt Kindly determine if pIC50 recorded for `Cc1ccc(S(=O)(=O)Nc2cccc3cccnc23)cc1` is above or exactly 5.
### Response TRUE

----------
# target-of-assay: Endothelial PAS domain-containing protein 1 (Homo sapiens) (UniProt Q99814)
# assay-explanation: HIF-2a and HIF-1a reporter inhibition panel, dose response, selectivity assay for HIF-2a inhibitor project, cell-based, luminescence (AID 651581)
# study-conditions: HIF-2a PANC, run 1
readout: IC50

As a guide, the following entries are already answered.
>  <smiles>
CC(C)c1ccc(/C=N/Nc2ccc(C(=O)O)cc2)cc1

>  <target-of-assay>
Endothelial PAS domain-containing protein 1 (Homo sapiens) (UniProt Q99814)

>  <IC50>
< 3 µM

$$$$
>  <smiles>
CCOC(=O)c1cccc(NC(=O)Nc2ccc(OCC)cc2)c1

>  <target-of-assay>
Endothelial PAS domain-containing protein 1 (Homo sapiens) (UniProt Q99814)

>  <IC50>
< 30 µM

$$$$

### Prompt API: value(readout= IC50, system= Endothelial PAS domain-containing protein 1 (Homo sapiens) (UniProt Q99814), query= `O=C(Nc1ccc(Cl)cc1Cl)c1cccc(N2C(=O)C=CC2=O)c1` )
### Response > 99 µM

### Prompt What reported IC50 corresponds to `CC(C)(C)c1ccc(/C=N/Nc2ccc(C(=O)O)cc2)cc1` on Endothelial PAS domain-containing protein 1 (Homo sapiens) (UniProt Q99814)?
### Response < 1 µM

### Prompt Record lookup: for Endothelial PAS domain-containing protein 1 (Homo sapiens) (UniProt Q99814), what IC50 belongs to `Cc1csc(NC(=O)CCc2c(C)nc3cc(-c4ccc(Cl)cc4)nn3c2C)n1` ?
### Response < 0.19 µM

### Prompt Request: IC50, test system Endothelial PAS domain-containing protein 1 (Homo sapiens) (UniProt Q99814), entry `CN(C)S(=O)(=O)c1cccc(NC(=O)CSc2cccc3cccnc23)c1`
### Response > 99 µM

### Prompt Can you look up IC50 on Endothelial PAS domain-containing protein 1 (Homo sapiens) (UniProt Q99814) for `O=C1C=CC(=O)N1c1ccccc1N1C(=O)C=CC1=O` ?
### Response > 99 µM

----------
# target-of-assay: Endothelial PAS domain-containing protein 1 (Homo sapiens) (UniProt Q99814)
# assay-explanation: HIF-2a and HIF-1a reporter inhibition panel, dose response, selectivity assay for HIF-2a inhibitor project, cell-based, luminescence (AID 651581)
# study-conditions: HIF-2a PANC, run 2
pIC50: −log10 of the molar value.
Measured pIC50 by item

Solved cases (3 shown):
>  <smiles>
COC(=O)c1cccc(NC(=O)NC(=O)c2ccccc2Cl)c1

>  <pIC50>
< 4.00

$$$$
>  <smiles>
CC(=O)N/N=C\c1cccc(OC/C=C/c2ccccc2)c1

>  <pIC50>
< 4.00

$$$$
>  <smiles>
Cc1ccc(NC(=O)c2cc(N3C(=O)C=CC3=O)ccc2N2CCOCC2)cc1

>  <pIC50>
< 4.00

$$$$

Read the next record carefully.
### Prompt Would you kindly share the measured pIC50 for `O=C(NCc1ccccc1)C(=O)Nc1cccc(C(=O)O)c1` ?
### Response < 4.00

----------
# target-of-assay: Endothelial PAS domain-containing protein 1 (Homo sapiens) (UniProt Q99814)
# assay-explanation: HIF-2a and HIF-1a reporter inhibition panel, dose response, selectivity assay for HIF-2a inhibitor project, cell-based, luminescence (AID 651581)
# study-conditions: HIF-2a PANC, run 2
pIC50: −log10 of the molar value.
readout: pIC50

>  <compound>
COC(=O)Cc1ccc(NC(=O)c2ccc(C(C)(C)C)cc2)cc1

>  <pIC50>
> 5.52

$$$$

Shifting focus to the compound that follows.
### Prompt Report pIC50 for `CCOc1ccc(OCc2cccc(C(=O)N3CCOCC3)c2)cc1` please.
### Response < 4.00

----------
We begin with a simple list: items and their reported pIC50.
# target-of-assay: Endothelial PAS domain-containing protein 1 (Homo sapiens)
# assay-explanation: HIF-2a and HIF-1a reporter inhibition panel, dose response, selectivity assay for HIF-2a inhibitor project, cell-based, luminescence (AID 651581)
# study-conditions: HIF-2a PANC, run 1
Note on pIC50: it is the negative log10 of concentration, concentration in mol/L.

Field: example entries. Status: answers known.
>  <smiles>
CC(=O)Nc1ccc(OC(=O)N2CCCCC2)cc1

>  <target-of-assay>
Endothelial PAS domain-containing protein 1 (Homo sapiens)

>  <measured-number>
5.71

$$$$
>  <smiles>
CC(=O)Nc1ccc(NC(=O)c2ccc(-c3ccnn3C)c3ccoc23)cc1

>  <target-of-assay>
Endothelial PAS domain-containing protein 1 (Homo sapiens)

>  <measured-number>
5.69

$$$$

### Prompt Give the measured pIC50 of `O=C(Nc1ccc(NC(=O)c2ccco2)cc1)c1ccc2c(c1)OCCO2` .
### Response 4.99

----------
# target-of-assay: Hypoxia-inducible factor 1-alpha (Homo sapiens)
# assay-explanation: HIF-2a and HIF-1a reporter inhibition panel, dose response, selectivity assay for HIF-2a inhibitor project, cell-based, luminescence (AID 651581)
# study-conditions: HIF-1a, run 2
pIC50: −log10 of the molar value.
readout: pIC50

Example entries and their recorded answers appear below.
>  <smiles>
COC(=O)COc1ccc(-c2nccc(-c3ccc(Br)cc3)n2)cc1

>  <result>
< 4.00

$$$$
>  <smiles>
CC(C)COc1ccc(C(=S)N2CCCC2)cc1

>  <result>
< 4.00

$$$$
>  <smiles>
Cc1cc(C)c(C)c(S(=O)(=O)ON2C(=O)c3ccccc3C2=O)c1C

>  <result>
< 4.00

$$$$
>  <smiles>
CCc1ccc(S(=O)(=O)ON2C(=O)c3ccccc3C2=O)cc1

>  <result>
< 4.00

$$$$
>  <smiles>
O=C(O)c1cccc(-c2nnn(Cc3ccccc3Cl)n2)c1

>  <result>
< 4.00

$$$$

### Prompt // pIC50 lookup, key: `Cc1nc2cc(-c3ccccc3)nn2c(C)c1CCC(=O)NCc1ccco1`
### Response < 4.00

----------
# target-of-assay: Hypoxia-inducible factor 1-alpha (Homo sapiens) (UniProt Q16665)
# Sequence (Q16665 whole entry, looked up): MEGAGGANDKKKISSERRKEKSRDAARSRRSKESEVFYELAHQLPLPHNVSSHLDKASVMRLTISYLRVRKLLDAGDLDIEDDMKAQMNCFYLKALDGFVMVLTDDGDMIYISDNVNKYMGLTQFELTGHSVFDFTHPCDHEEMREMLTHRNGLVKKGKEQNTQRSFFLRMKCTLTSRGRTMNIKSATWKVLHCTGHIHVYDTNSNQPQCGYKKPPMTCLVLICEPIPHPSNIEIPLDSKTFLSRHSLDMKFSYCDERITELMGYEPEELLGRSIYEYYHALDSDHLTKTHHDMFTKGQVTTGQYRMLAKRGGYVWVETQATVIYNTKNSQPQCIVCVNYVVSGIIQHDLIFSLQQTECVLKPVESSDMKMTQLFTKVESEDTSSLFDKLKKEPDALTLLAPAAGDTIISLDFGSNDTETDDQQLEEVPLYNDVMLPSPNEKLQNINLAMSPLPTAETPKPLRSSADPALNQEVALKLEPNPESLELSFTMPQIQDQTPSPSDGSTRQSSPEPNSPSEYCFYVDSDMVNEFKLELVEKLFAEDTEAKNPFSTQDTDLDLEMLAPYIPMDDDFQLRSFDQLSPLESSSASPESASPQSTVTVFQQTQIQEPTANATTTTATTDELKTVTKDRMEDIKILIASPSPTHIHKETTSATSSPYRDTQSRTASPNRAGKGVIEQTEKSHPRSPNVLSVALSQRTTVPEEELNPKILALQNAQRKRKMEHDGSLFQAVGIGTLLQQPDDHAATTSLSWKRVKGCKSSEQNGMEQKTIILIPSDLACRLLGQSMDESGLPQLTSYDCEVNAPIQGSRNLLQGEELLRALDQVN
# assay-explanation: HIF-2a and HIF-1a reporter inhibition panel, dose response, selectivity assay for HIF-2a inhibitor project, cell-based, luminescence (AID 651581)
# study-conditions: HIF-1a, run 2
pIC50: −log10 of the molar value.
readout: pIC50

>  <smiles>
NNC(=O)c1cccc(COc2ccc3c(c2)CCC3)c1

>  <pIC50>
< 4.00

$$$$
>  <smiles>
O=Cc1ccc(-c2cccs2)s1

>  <pIC50>
< 4.00

$$$$
>  <smiles>
CC(=O)Nc1ccc(NC(=O)c2ccc(-c3ccnn3C)c3ccoc23)cc1

>  <pIC50>
< 4.00

$$$$
>  <smiles>
Cc1csc(NC(=O)CCc2c(C)nc3cc(-c4ccc(Cl)cc4)nn3c2C)n1

>  <pIC50>
> 5.00

$$$$
>  <smiles>
CCOC(=O)C1CCN(C(=O)Nc2ccc3snnc3c2)CC1

>  <pIC50>
< 4.00

$$$$

Now for the compound whose pIC50 we want.
### Prompt Item under review: `COc1cc(OC)cc(-c2nnc(Nc3nc4c(F)cccc4s3)o2)c1` . Reported pIC50?
### Response < 4.00
